Target: full-length beta-Catenin (Uniprot ID P35222) (Homo sapiens (Human)) (UniProt P35222)
Test: fluorescence polarization competition; full-length beta-catenin, competitor 5FAM-TCF4(10-53)
Starred links: 1 amine or outer side, 2 acyl side, 3 side chain; linkers in the order of their positions; H or OH if unused. Positions of bridges follow the written chain, without caps; N, C: chain ends. Non-standard residues stand in square brackets, D forms with d. Primed or numbered codes have the meaning given here. PyrS2″ = (S)-3-amino-1-((pent-4-en-1-yloxy)carbonyl)pyrrolidine-3-carboxylic acid (stapling residue), C=CCCCOC(=O)N1CC[C@@](N[*:1])(C(=O)[*:2])C1; B5(4) = 2,2-bis(4-pentenyl)glycine = 2-amino-2-(pent-4-en-1-yl)hept-6-enoic acid (stitching residue), C=CCCCC(CCCC=C)(N[*:1])C(=O)[*:2]; B5(5) = 2,2-bis(4-pentenyl)glycine, 2-amino-2-(pent-4-en-1-yl)hept-6-enoic acid (stitching residue), C=CCCCC(CCCC=C)(N[*:1])C(=O)[*:2]; TfeGA = (S)-2-amino-3-((carboxymethyl)(2,2,2-trifluoroethyl)amino)propanoic acid, O=C([C@H](CN(CC(=O)[*:3])CC(F)(F)F)N[*:1])[*:2]; Phe(3-COOH) = N[C@@H](Cc1cccc(C(=O)O)c1)C(=O)O; Phe(2-CF3) = N[C@@H](Cc1ccccc1C(F)(F)F)C(=O)O; Bta = N[C@@H](Cc1csc2ccccc12)C(=O)O; Lys(iPr) = CC(C)NCCCC[C@H](N)C(=O)O; αAllylPro = C=CC[C@@]1(C(=O)O)CCCN1; tBuAla = CC(C)(C)C[C@H](N)C(=O)O; 3Thi = N[C@@H](Cc1ccsc1)C(=O)O; Ac3c = NC1(C(=O)O)CC1
Could you please report measured IC50 for the items listed next?
One number for each entry, in nM.

Ac-[αAllylPro]D[tBuAla][B5(4)]D[TfeGA]AAFT[PyrS2″][3Thi][Bta]F-NH2 (staple 1-4, 4-11; also: -CH=CH- in each staple reduced to -CH2-CH2-) [I-1756] | 329

Okay, here is my list. What is IC50 for each of these?
1. Ac-[αAllylPro]D[tBuAla][B5(5)]D[TfeGA]AAFL[PyrS2″][3Thi][Bta]L-NH2 (staple 1-4, 4-11) [I-1748]
2. Ac-[αAllylPro]D[tBuAla][B5(5)]D[TfeGA][Lys(iPr)]AFT[PyrS2″][3Thi][Bta]L-NH2 (staple 1-4, 4-11) [I-1760]
3. Ac-[αAllylPro]D[tBuAla][B5(5)]D[Phe(3-COOH)]AAFL[PyrS2″][Phe(2-CF3)][Bta]QL[Ac3c]-NH2 (staple 1-4, 4-11) [I-2389]

**A:**
1. 141
2. 32
3. 72
